EXPERIMENT_SUMMARY: Half life in human
Format: ADME, organism-based
DETAILS: in vivo
QUANTITY: half-life (h)
Only the number, expressed in h, is required.

For this compound ( COc1nc2ccc(Br)cc2cc1[C@@H](c1ccccc1)[C@@](O)(CCN(C)C)c1cccc2ccccc12 ), measured half-life is 24

---

EXPERIMENT_SUMMARY: Tmax in healthy human at 10 mg/kg, po
Format: ADME, organism-based
Design: dose 10 mg/kg, route oral
DETAILS: in vivo
QUANTITY: Tmax (h)
Only the number, expressed in h, is required.

For this compound ( CO[C@H]1/C=C/O[C@@]2(C)Oc3c(C)c(O)c4c(O)c(c(/C=N/N5CCN(C)CC5)c(O)c4c3C2=O)NC(=O)/C(C)=C\C=C\[C@H](C)[C@H](O)[C@@H](C)[C@@H](O)[C@@H](C)[C@H](OC(C)=O)[C@@H]1C ), measured Tmax is 1.5

---

EXPERIMENT_SUMMARY: Plasma protein binding in healthy human at 600 mg/kg, po
Type: ADME, organism-based
Set-up: dose 600 mg/kg, route oral
DETAILS: read-out: PPB (converted)
QUANTITY: fraction unbound
Write the number on its own, no unit after it.

For this compound ( CO[C@H]1/C=C/O[C@@]2(C)Oc3c(C)c(O)c4c(O)c(c(/C=N/N5CCN(C6CCCC6)CC5)c(O)c4c3C2=O)NC(=O)/C(C)=C\C=C\[C@H](C)[C@H](O)[C@@H](C)[C@@H](O)[C@@H](C)[C@H](OC(C)=O)[C@@H]1C ), measured fraction unbound is 0.03

---

EXPERIMENT_SUMMARY: AUC in healthy human at 600 mg/kg, po
Assay type: ADME, organism-based
Design: dose 600 mg/kg, route oral
DETAILS: plasma
QUANTITY: AUC (µg·h/mL)
Only the number, expressed in µg·h/mL, is required.

For this molecule ( CO[C@H]1/C=C/O[C@@]2(C)Oc3c(C)c(O)c4c(O)c(c(/C=N/N5CCN(C6CCCC6)CC5)c(O)c4c3C2=O)NC(=O)/C(C)=C\C=C\[C@H](C)[C@H](O)[C@@H](C)[C@@H](O)[C@@H](C)[C@H](OC(C)=O)[C@@H]1C ), measured AUC is 319

---

EXPERIMENT_SUMMARY: Drug excretion in feces of healthy human at 800 mg/kg
Type: ADME, organism-based
Set-up: dose 800 mg/kg
DETAILS: faeces, read-out: Activity
QUANTITY: dose excreted (%)
Only the number, expressed in %, is required.

For this molecule ( COc1c(N2C[C@@H]3CCCN[C@@H]3C2)c(F)cc2c(=O)c(C(=O)O)cn(C3CC3)c12 ), measured dose excreted is 25

---

EXPERIMENT_SUMMARY: AUC in healthy human at 400 mg/kg, po
Format: ADME, organism-based
Parameters: dose 400 mg/kg, route oral
DETAILS: plasma
QUANTITY: AUC (µg·h/mL)
Only the number, expressed in µg·h/mL, is required.

For this compound ( COc1c(N2C[C@@H]3CCCN[C@@H]3C2)c(F)cc2c(=O)c(C(=O)O)cn(C3CC3)c12 [MOXIFLOXACIN] ), measured AUC is 26.9
